procedure.summary: Biodistribution of technetium-labelled peptides
Type: in vivo, CD1 mice
stated.conditions: CD1, blood, iv, 140 ug/mouse, total radioactivity; 140 μg/mouse; 1 hour; read-out: injected activity in Blood
Residues, ends and D or L forms follow the SMILES beside them. *: point of attachment. X1 = Cc1nn(CCN(CCN)CCCC(=O)*)c(C)c1CC(=O)O
outcome.measure: tissue uptake at 1 h

What value of tissue uptake at 1 h has been recorded for this entry: CC[C@H](C)[C@H](NC(=O)CNC(=O)[C@H](C)NC(=O)CCCN(CCN)CCn1nc(C)c(CC(=O)O)c1C)C(=O)N[C@@H](CC(C)C)C(=O)N[C@@H](CCCCN)C(=O)N[C@@H](CCCNC(=N)N)C(=O)N[C@@H](Cc1c[nH]c2ccccc12)C(=O)O [^99mTc(CO)3-Pz^1-pepH3, metal not drawn] (X1-AGILKRW-OH; C-terminus assumed)
0.43 %ID/g

###

procedure.summary: Biodistribution of technetium-labelled peptides
Format: in vivo, CD1 mice
stated.conditions: CD1, lung, iv, 140 ug/mouse, total radioactivity; 140 μg/mouse; 1 hour; read-out: injected activity in Lung
Residues, ends and D or L forms follow the SMILES beside them. *: point of attachment. X1 = Cc1nn(CCN(CCN)CCCC(=O)*)c(C)c1CC(=O)O
outcome.measure: tissue uptake at 1 h (%ID/g)
Just the number in %ID/g, nothing appended.

Data request, read-out tissue uptake at 1 h, for CC[C@H](C)[C@H](NC(=O)CNC(=O)[C@H](C)NC(=O)CCCN(CCN)CCn1nc(C)c(CC(=O)O)c1C)C(=O)N[C@@H](CC(C)C)C(=O)N[C@@H](CCCCN)C(=O)N[C@@H](CCCNC(=N)N)C(=O)N[C@@H](Cc1c[nH]c2ccccc12)C(=O)O [^99mTc(CO)3-Pz^1-pepH3, metal not drawn] (X1-AGILKRW-OH; C-terminus assumed)
0.31

###

System: in vitro model of the BBB (bEnd3 cells)
procedure.summary: Transmigration of radiolabelled peptides across in vitro BBB model
Assay type: in vitro ADME
stated.conditions: 99mTc; 24 hours
A collection of substances and their measured BBB transmigration
Response body: numeric value in %, unit text excluded.

{"columns": ["substance", "BBB transmigration / %"],
 "data": [
  ["VQQLTKRFSL (Dengue virus 2; /note=“#PepH1”)", 73.83]
]}

Endpoint output: BBB transmigration of KLFMALVAFLRFLT [PepH2] . Value?
9.32

Form field: reported BBB transmigration of AGILKRW (Dengue virus 2; /note=“#PepH3 (PEP+)”)
67.23

###

Reported Internalization values are given for each entry in this list.
System: bEnd3 cells
procedure.summary: Uptake test: cellular interaction (acid wash) and internalization (lysate)
Type: cell-based
stated.conditions: 99mTc; 24 hours
Express it in %; write the number only.

{"columns": ["substance", "study.system", "outcome.measure", "unit.text", "number"],
 "data": [
  ["AGILKRW (Dengue virus 2; /note=“#PepH3 (PEP+)”)", "bEnd3 cells", "Internalization", "%", 0.35],
  ["VQQLTKRFSL (Dengue virus 2; /note=“#PepH1”)", "bEnd3 cells", "Internalization", "%", 0.12]
]}

Give the measured Internalization of KSKAINVLRGFRKEIGRMLNILN [PepH4] .
2.83

###

Quick reference for tissue uptake at 5 min among some compounds
procedure.summary: Biodistribution of technetium-labelled peptides
Type: in vivo, CD1 mice
stated.conditions: mouse, lung, 10 ug, total radioactivity; CD1 mice, iv; 5 min; 10 μg; read-out: injected activity in Lung
Residues, ends and D or L forms follow the SMILES beside them. *: point of attachment. X1 = Cc1nn(CCN(CCN)CCCC(=O)*)c(C)c1CC(=O)O
Report as a plain number; the unit %ID/g is understood.

{"columns": ["compound", "tissue uptake at 5 min, %ID/g"],
 "data": [
  ["Cc1nn(CCN(CCN)CCCC(=O)N[C@H](C(=O)N[C@@H](CCC(N)=O)C(=O)N[C@@H](CCC(N)=O)C(=O)N[C@@H](CC(C)C)C(=O)N[C@H](C(=O)N[C@@H](CCCCN)C(=O)N[C@@H](CCCNC(=N)N)C(=O)N[C@@H](Cc2ccccc2)C(=O)N[C@@H](CO)C(=O)N[C@@H](CC(C)C)C(=O)O)[C@@H](C)O)C(C)C)c(C)c1CC(=O)O [^99mTc(CO)3-Pz^1-pepH1, metal not drawn] (X1-VQQLTKRFSL-OH; C-terminus assumed)", 2.6]
]}

Consider now this further compound.
Quick check: tissue uptake at 5 min of CC[C@H](C)[C@H](NC(=O)CNC(=O)[C@H](C)NC(=O)CCCN(CCN)CCn1nc(C)c(CC(=O)O)c1C)C(=O)N[C@@H](CC(C)C)C(=O)N[C@@H](CCCCN)C(=O)N[C@@H](CCCNC(=N)N)C(=O)N[C@@H](Cc1c[nH]c2ccccc12)C(=O)O [^99mTc(CO)3-Pz^1-pepH3, metal not drawn] (X1-AGILKRW-OH; C-terminus assumed) ?
3.7

###

procedure.summary: Biodistribution of technetium-labelled peptides
Assay type: in vivo, CD1 mice
stated.conditions: CD1, stomach, iv, 80 ug/mouse, total radioactivity; 80 μg/mouse; 1 hour; read-out: injected activity in Stomach
outcome.measure: tissue uptake at 1 h (%ID/g)
Entry rule: numbers only, all in %ID/g.

I am curious: what tissue uptake at 1 h value has been reported for CSCC[C@H](NC(=O)[C@H](Cc1ccccc1)NC(=O)[C@H](CC(C)C)NC(=O)[C@H](CCCCN)NC(=O)CCCN(CCN)CCn1nc(C)c(CC(=O)O)c1C)C(=O)N[C@@H](C)C(=O)N[C@@H](CC(C)C)C(=O)N[C@H](C(=O)N[C@@H](C)C(=O)N[C@@H](Cc1ccccc1)C(=O)N[C@@H](CC(C)C)C(=O)N[C@@H](CCCNC(=N)N)C(=O)N[C@@H](Cc1ccccc1)C(=O)N[C@@H](CC(C)C)C(=O)N[C@H](C(=O)O)[C@@H](C)O)C(C)C [^99mTc(CO)3-Pz^1-pepH2, metal not drawn] ?
9.4

###

procedure.summary: Biodistribution of technetium-labelled peptides
Assay type: in vivo, CD1 mice
stated.conditions: CD1, spleen, iv, 140 ug/mouse, total radioactivity; 140 μg/mouse; 1 hour; read-out: injected activity in Spleen
Residues, ends and D or L forms follow the SMILES beside them. *: point of attachment. X1 = Cc1nn(CCN(CCN)CCCC(=O)*)c(C)c1CC(=O)O
outcome.measure: tissue uptake at 1 h (%ID/g)
The reply should be a number in %ID/g, with the unit left off.

Name the recorded tissue uptake at 1 h for CC[C@H](C)[C@H](NC(=O)CNC(=O)[C@H](C)NC(=O)CCCN(CCN)CCn1nc(C)c(CC(=O)O)c1C)C(=O)N[C@@H](CC(C)C)C(=O)N[C@@H](CCCCN)C(=O)N[C@@H](CCCNC(=N)N)C(=O)N[C@@H](Cc1c[nH]c2ccccc12)C(=O)O [^99mTc(CO)3-Pz^1-pepH3, metal not drawn] (X1-AGILKRW-OH; C-terminus assumed) .
0.81

###

Test system: bEnd3 cells
procedure.summary: Uptake test: cellular interaction (acid wash) and internalization (lysate)
Assay type: cell-based
stated.conditions: 99mTc; 24 hours
Parameter: Cellular interaction. Scope: all listed entries.
Give just the numeric value; % need not be written.

Quick one: Cellular interaction for AGILKRW (Dengue virus 2; /note=“#PepH3 (PEP+)”) ?
0.60

Give the measured Cellular interaction of VQQLTKRFSL (Dengue virus 2; /note=“#PepH1”) .
0.38

###

procedure.summary: Biodistribution of technetium-labelled peptides
Format: in vivo, CD1 mice
stated.conditions: CD1, liver, iv, 80 ug/mouse, total radioactivity; 80 μg/mouse; 2 min; read-out: injected activity in Liver
outcome.measure: tissue uptake at 2 min

Given CSCC[C@H](NC(=O)[C@H](Cc1ccccc1)NC(=O)[C@H](CC(C)C)NC(=O)[C@H](CCCCN)NC(=O)CCCN(CCN)CCn1nc(C)c(CC(=O)O)c1C)C(=O)N[C@@H](C)C(=O)N[C@@H](CC(C)C)C(=O)N[C@H](C(=O)N[C@@H](C)C(=O)N[C@@H](Cc1ccccc1)C(=O)N[C@@H](CC(C)C)C(=O)N[C@@H](CCCNC(=N)N)C(=O)N[C@@H](Cc1ccccc1)C(=O)N[C@@H](CC(C)C)C(=O)N[C@H](C(=O)O)[C@@H](C)O)C(C)C [^99mTc(CO)3-Pz^1-pepH2, metal not drawn] , state its recorded tissue uptake at 2 min.
16.7 %ID/g

###

procedure.summary: Biodistribution of technetium-labelled peptides
Assay type: in vivo, CD1 mice
stated.conditions: CD1, bone, iv, 80 ug/mouse, total radioactivity; 80 μg/mouse; 1 hour; read-out: injected activity in Bone
outcome.measure: tissue uptake at 1 h (%ID/g)
Value expressed in %ID/g; do not type the unit.

Looking for the measured tissue uptake at 1 h of CSCC[C@H](NC(=O)[C@H](Cc1ccccc1)NC(=O)[C@H](CC(C)C)NC(=O)[C@H](CCCCN)NC(=O)CCCN(CCN)CCn1nc(C)c(CC(=O)O)c1C)C(=O)N[C@@H](C)C(=O)N[C@@H](CC(C)C)C(=O)N[C@H](C(=O)N[C@@H](C)C(=O)N[C@@H](Cc1ccccc1)C(=O)N[C@@H](CC(C)C)C(=O)N[C@@H](CCCNC(=N)N)C(=O)N[C@@H](Cc1ccccc1)C(=O)N[C@@H](CC(C)C)C(=O)N[C@H](C(=O)O)[C@@H](C)O)C(C)C [^99mTc(CO)3-Pz^1-pepH2, metal not drawn] , can you help?
1.4
